Attribution: PubChem BioAssay (NCI)

# Test system: NCI-H322M lung
# experiment_summary: NCI-60 one-dose screen, 48 h (100 = growth as untreated, 0 = no growth, -100 = all killed)
# condition_set: 10 µM unless noted
This is part of a sample that, as a whole, favours compounds with a hit. Of some 83,000 tested, about 20% had one in any assay.
value_type: growth (%)

>>> df
                                    compound  value_type  unit_tag  value
 0  CC(C)(C)CC1(C)NC(=O)NC1=O (centres undefined)      growth         %    126
 1  CN1CCCN(C(c2ccccc2)c2ccc(Cl)cc2)CC1 (centres undefined)      growth         %    100
 2               C1Cc2onc(-c3noc4c3CCC4)c2C1      growth         %    103
 3            Cc1cc(C(=O)NN)c(C#N)c(=O)[nH]1      growth         %    110
 4                            CCCCCC#CC(=O)O      growth         %   98.7
 5                            NC(=O)N1CCOCC1      growth         %    106
 6  CC(C)(C)[Si](C)(C)OCC1OC(n2cnc3c(N)ncnc32)CC1OS(C)(=O)=O (centres undefined)      growth         %    109
 7           COc1ccc(Nc2cc(Cl)ccc2C(=O)O)cn1      growth         %    128
 8                     CCCCCC(=O)OCCC1CCCCC1      growth         %   99.9
 9                  Cc1ccc(N)c(S(=O)(=O)O)c1      growth         %   93.8
10                    CCc1ccccc1C(=O)N(CC)CC      growth         %    105
11                               CCOC(=O)CNC      growth         %   96.9
12                    COc1ccc2c(ccc[n+]2C)c1      growth         %    105
13  Clc1cccc(Cl)c1C1CSc2ccccc2N=C1c1ccccc1 (centres undefined)      growth         %   86.3
14        Oc1ccc(N=Cc2ccc(OCc3ccccc3)cc2)cc1      growth         %   93.8
15   Oc1cc2ccccc2c(-c2c(O)c(O)cc3ccccc23)c1O      growth         %   47.9
16        Nc1c(Br)cc(O)c2c1C(=O)c1ccccc1C2=O      growth         %   98.7
17                                NC(=O)NCCO      growth         %    109
18                        CCC(/C=C\C(C)=O)CC      growth         %     99
19                        NNc1ncnc2nc[nH]c12      growth         %   50.5
20           CN(CCCN(C)CCC1CCCCC1)CCC1CCCCC1      growth         %   94.6
21   O=C(CC(CC(=O)c1ccccc1)c1ccccn1)c1ccccc1      growth         %    102
22                     Cc1ccc(C2CCCCC2)cc1Br      growth         %   99.2
23       S=c1nc(-c2ccccn2)c(-c2ccccn2)n[nH]1      growth         %    103
24                         O=Cc1ccc(O)c(O)c1      growth         %    104
25   CC1CC(C)S(=O)(=O)C1 (centres undefined)      growth         %    113
26                        Nc1cccc2cccc(O)c12      growth         %   79.2
27  NNC(=O)N/N=C1\C(=O)N(c2nccs2)C(=O)C(=O)C1c1nc2ccccc2s1 (centres undefined)      growth         %    105
28  CCOC(=O)c1ccc(Nc2sc(C(=O)c3ccc(Br)cc3)c(N)c2C#N)cc1      growth         %   37.9
29  C=CCC(OC(C)=O)c1ccc(OC)c(OC)c1 (centres undefined)      growth         %    105
30                           CCCOCc1cn[nH]n1      growth         %    102
31              O=C1Nc2ccccc2/C1=C\c1ccccc1O      growth         %   80.5
32                           COc1nc2ccccc2s1      growth         %    111
33                      C=C(OC(C)=O)c1ccccc1      growth         %    113
34  CCOc1ccc(NC(=S)N2CCC(CCCC3CCN(C(=S)Nc4ccc(OCC)cc4)CC3)CC2)cc1      growth         %    100
35  CC(=O)C1C(=O)C(=O)N(c2ccc(Cl)c(Cl)c2)C1=O (centres undefined)      growth         %    108
36                       CCOc1ccc(C(=O)O)cc1      growth         %    108
37          COc1cc(CC#N)c([N+](=O)[O-])cc1OC      growth         %    105
38                         Cc1ccc(C)c(CCO)c1      growth         %    108

---

# Test system: HCC-2998 colon
# experiment_summary: NCI-60 one-dose screen, 48 h (100 = growth as untreated, 0 = no growth, -100 = all killed)
# condition_set: 10 µM unless noted
This is part of a sample that, as a whole, favours compounds with a hit. Of some 83,000 tested, about 20% had one in any assay.
Attribute: growth
value_type: growth (%)

>>> print(df.to_string())
                                    molecule  value
 0  CC(=O)NC(CCc1ccc(Cl)c(Cl)c1)c1cccc(O)c(=O)c1 (configuration not stated)   22.6
 1  CC(C)N1CC(=O)N2CSCC2C1=O (configuration not stated)    102
 2              O=S(=O)(O)C(C(I)I)S(=O)(=O)O    101
 3                                  ON1CCCC1   98.8
 4                       CCCCOC(=O)c1ccccc1O    122
 5  Cc1c(-c2ccc(C3CCCCC3)cc2)nc2ccc(F)cc2c1C(=O)O   49.9
 6  Cc1cc(Nc2ccc3c(c2)OCO3)c2cc3c(cc2n1)OCO3   45.7
 7           CCNC(=O)OCCc1c2ccccc2nc2ccccc12    110
 8  BrCc1cccc(C[P+](c2ccccc2)(c2ccccc2)c2ccccc2)c1   33.1
 9   CCCc1cccc(CCC)c1NC(=O)Nc1cc(Cl)cc(Cl)c1    116
10                    CCCC(=O)CC(=O)c1ccccc1   99.1
11  C/C(=N\N=C(/C)c1cccc([N+](=O)[O-])c1)c1cccc([N+](=O)[O-])c1     98
12  N=C(N)c1nn(C2OC(CO)C(O)C2O)c2nc[nH]c(=O)c12 (configuration not stated)  -22.8
13                                  Ic1cccs1    108
14                    COc1ccc2c(ccc[n+]2C)c1    104
15       S=c1nc(-c2ccccn2)c(-c2ccccn2)n[nH]1   99.5
16                       CCNc1ncnc2[nH]ncc12    106
17  OCC(O)COc1ccc(Cl)cc1Cl (configuration not stated)   98.3
18                             Nc1ccc(F)cc1F    113
19         Nc1ccc2ccccc2c1-c1c(N)ccc2ccccc12   66.3
20                    CCCCN(C(=O)CC)c1ccccc1    112
21    O=C(O)c1ccc([N+](=O)[O-])cc1S(=O)(=O)O   97.8
22                   C=CCc1cc(OC)c(O)c(OC)c1    102
23  COc1cc(C(=O)N2CCN(c3ccccc3)CC2)c2ccccc2n1  -20.3
24                          CC(CO)(CO)C(=O)O   94.6
25  C=C1CC2(OC1=O)C(=O)N(C)c1ccc(I)cc12 (configuration not stated)  -89.3
26  CC(C)OCC(CCl)OC(=O)Nc1ccccc1 (configuration not stated)   95.6
27             CCCCOC(=O)c1ccc(NC(=O)CCl)cc1    101
28  CC(O)C(F)(F)C(F)(F)C(F)(F)F (configuration not stated)    111
29  Nc1ncnc2c1ncn2C1OC(CO)C2OC21 (configuration not stated)    105
30                 c1ccc(-c2ccc3ccccc3c2)cc1    107
31            Nc1ncnc(Nc2ccc(C(F)(F)F)cc2)n1    101
